test: Pharmacokinetic evaluation test using mice; assay type: in vivo; details: mouse, plasma, iv, 1 mg/kg, single intravenous 1.0 mg/kg, 0.5 hr, read-out: Blood concentration, mean value
Endpoint Label: concentration at 0.5 hr (ng/mL)
Give bare numbers, in ng/mL.

CN[C@H](C(=O)N[C@H](C(=O)N(C)[C@H](/C=C(\C)C(=O)N[C@H](CCC(=O)O)C(=O)O)C(C)C)C(C)(C)C)C(C)(C)c1cn(C)c2ccccc12 13.7

*Q* Which concentration at 0.5 hr is reported for this compound? CN[C@H](C(=O)N[C@H](C(=O)N(C)[C@H](/C=C(\C)C(=O)O)C(C)C)C(C)(C)C)C(C)(C)c1cn(C)c2ccccc12
*A* 65

----------
Record form. Attribute: Microtubule polymerization rate (%). Fill in for each entry.
molecular target: porcine tubulin (Sus scrofa, UniProt P02550+P02554); experiment: Activity for inhibiting microtubule polymerization using porcine tubulins (2), microtubule polymerization rate; conditions: 60 minutes after assay initiation; relative to wells without compound; lower = stronger inhibition
Sequence (P02554 whole entry): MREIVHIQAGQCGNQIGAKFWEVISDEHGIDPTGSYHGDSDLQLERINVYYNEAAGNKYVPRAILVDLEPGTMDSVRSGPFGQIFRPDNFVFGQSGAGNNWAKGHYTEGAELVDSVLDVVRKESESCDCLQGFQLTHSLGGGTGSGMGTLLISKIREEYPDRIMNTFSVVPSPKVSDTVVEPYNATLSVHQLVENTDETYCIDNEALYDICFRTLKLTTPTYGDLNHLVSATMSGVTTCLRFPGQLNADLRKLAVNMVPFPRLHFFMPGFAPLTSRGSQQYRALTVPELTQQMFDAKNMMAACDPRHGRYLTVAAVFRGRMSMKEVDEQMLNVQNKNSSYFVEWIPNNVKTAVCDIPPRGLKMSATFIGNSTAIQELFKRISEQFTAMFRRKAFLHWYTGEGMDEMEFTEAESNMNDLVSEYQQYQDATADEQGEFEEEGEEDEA
Sequence (P02550 whole entry): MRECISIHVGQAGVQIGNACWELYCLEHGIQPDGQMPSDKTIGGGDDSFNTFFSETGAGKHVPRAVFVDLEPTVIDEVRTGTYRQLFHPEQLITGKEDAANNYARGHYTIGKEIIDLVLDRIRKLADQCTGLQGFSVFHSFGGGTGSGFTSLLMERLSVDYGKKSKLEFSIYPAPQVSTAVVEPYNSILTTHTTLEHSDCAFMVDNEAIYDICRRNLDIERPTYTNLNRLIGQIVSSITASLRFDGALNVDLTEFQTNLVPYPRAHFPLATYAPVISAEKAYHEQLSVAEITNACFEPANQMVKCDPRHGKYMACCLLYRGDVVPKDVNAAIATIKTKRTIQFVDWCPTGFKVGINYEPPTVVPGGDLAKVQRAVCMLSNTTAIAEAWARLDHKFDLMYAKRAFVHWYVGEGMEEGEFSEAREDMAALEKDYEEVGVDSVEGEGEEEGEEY
Numbers only, in %.

Look over these answered cases.
CN[C@H](C(=O)N[C@H](C(=O)N(C)[C@H](/C=C(\C)C(=O)N[C@H](CCC(=O)O)C(=O)O)C(C)C)C(C)(C)C)C(C)(C)c1ccc(C(=O)O)cc1 4
CN[C@H](C(=O)N[C@H](C(=O)N(C)[C@H](/C=C(\C)C(=O)N[C@H](CCC(=O)O)C(=O)O)C(C)C)C(C)(C)C)C(C)(C)c1cccc(F)c1 7
CN[C@H](C(=O)N[C@H](C(=O)N(C)[C@H](/C=C(\C)C(=O)N[C@H](CCC(=O)O)C(=O)O)C(C)C)C(C)(C)C)C(C)(C)c1ccc(C(=O)OC(C)(C)C)cc1 9
CN[C@H](C(=O)N[C@H](C(=O)N(C)[C@H](/C=C(\C)C(=O)N[C@H](CCC(=O)O)C(=O)O)C(C)C)C(C)(C)C)C(C)(C)C1CCCCC1 5

From here, focus on the item given below.
*Q* Reported Microtubule polymerization rate (%) for porcine tubulin (Sus scrofa, UniProt P02550+P02554), given CN[C@H](C(=O)N[C@H](C(=O)N(C)[C@H](/C=C(\C)C(=O)N[C@@H](CCC(=O)OC)C(=O)OC)C(C)C)C(C)(C)C)C(C)(C)c1cn(C)c2ccccc12 ?
*A* 1
